MEASUREMENT TARGET: C-X-C chemokine receptor type 4 (Homo sapiens, UniProt P61073)
Sequence (P61073 whole entry): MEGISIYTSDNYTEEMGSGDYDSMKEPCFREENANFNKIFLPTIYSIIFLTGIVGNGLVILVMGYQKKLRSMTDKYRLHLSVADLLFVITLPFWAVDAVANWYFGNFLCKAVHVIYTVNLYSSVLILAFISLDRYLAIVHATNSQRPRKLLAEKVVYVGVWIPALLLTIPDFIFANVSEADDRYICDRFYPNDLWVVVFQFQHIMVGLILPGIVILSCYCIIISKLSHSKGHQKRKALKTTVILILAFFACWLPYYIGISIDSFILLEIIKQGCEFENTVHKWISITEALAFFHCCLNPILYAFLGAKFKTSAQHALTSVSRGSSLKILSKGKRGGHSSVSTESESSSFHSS
METHOD SUMMARY: Displacement of [125I]-CPCR4 from CXCR4 receptor in human Jurkat cells after 2 hrs by gamma counting
*1 amine or outer side, *2 acyl side, *3 side chain or, on linkers, in order; H or OH if unused. Where a SMILES comes first, the peptide text is derived from it. Bridges are numbered along the chain shown (N, C = ends). Roman numbers before positions name the chains, in order. [ ]: non-standard residue; d: D form. Sebacoyl = O=C(CCCCCCCCC(=O)[*:2])[*:1]; 2Nal = N[C@@H](Cc1ccc2ccccc2c1)C(=O)O; Glutaryl = O=C(CCCC(=O)[*:2])[*:1]; dNMeOrn = CN[C@H](CCCN)C(=O)O
READOUT: IC50 (nM)
One number for each entry, in nM.

The cases that follow already have their IC50 on record.
{"COMPOUND": "CN1C(=O)[C@@H](Cc2ccc(O)cc2)NC(=O)CNC(=O)[C@H](Cc2ccc3ccccc3c2)NC(=O)[C@H](CCCN=C(N)N)NC(=O)[C@H]1CCCNC(=O)CCCCCCCCC(=O)NCCC[C@@H]1C(=O)N[C@@H](CCCN=C(N)N)C(=O)N[C@@H](Cc2ccc3ccccc3c2)C(=O)NCC(=O)N[C@H](Cc2ccc(O)cc2)C(=O)N1C (I: cyclo([2Nal]G[dY][dNMeOrn]R) / II: cyclo([2Nal]G[dY][dNMeOrn]R); linker I:4-II:4 via Sebacoyl)", "MEASUREMENT TARGET": "C-X-C chemokine receptor type 4 (Homo sapiens, UniProt P61073)", "READOUT": "IC50", "NUMERIC RESULT": 2}
{"COMPOUND": "CC(=O)NCCC[C@@H]1C(=O)N[C@@H](CCCNC(N)=O)C(=O)N[C@@H](Cc2ccc3ccccc3c2)C(=O)NCC(=O)N[C@H](Cc2ccc(O)cc2)C(=O)N1C", "MEASUREMENT TARGET": "C-X-C chemokine receptor type 4 (Homo sapiens, UniProt P61073)", "READOUT": "IC50", "NUMERIC RESULT": 1000}

Return reported IC50. Input compound: CN1C(=O)[C@@H](Cc2ccc(O)cc2)NC(=O)CNC(=O)[C@H](Cc2ccc3ccccc3c2)NC(=O)[C@H](CCCNC(=N)N)NC(=O)[C@H]1CCCNC(=O)CCCC(=O)NCCC[C@@H]1C(=O)N[C@@H](CCCNC(=N)N)C(=O)N[C@@H](Cc2ccc3ccccc3c2)C(=O)NCC(=O)N[C@H](Cc2ccc(O)cc2)C(=O)N1C (I: cyclo([2Nal]G[dY][dNMeOrn]R) / II: cyclo([2Nal]G[dY][dNMeOrn]R); linker I:4-II:4 via Glutaryl) 4

----------
MEASUREMENT TARGET: UniProtKB P61073
METHOD SUMMARY: Displacement of [125I]-CPCR4 from CXCR4 receptor in human Jurkat cells after 2 hrs by gamma counting
*1 amine or outer side, *2 acyl side, *3 side chain or, on linkers, in order; H or OH if unused. Where a SMILES comes first, the peptide text is derived from it. Bridges are numbered along the chain shown (N, C = ends). Roman numbers before positions name the chains, in order. [ ]: non-standard residue; d: D form. 2Nal = N[C@@H](Cc1ccc2ccccc2c1)C(=O)O; dNMeOrn = CN[C@H](CCCN)C(=O)O; Suc = O=C(CCC(=O)[*:2])[*:1]
Kindly state IC50 for each of the entries shown.
Answers are plain numbers, in nM.

The cases that follow already have their IC50 on record.
{"MOLECULE": "CN1C(=O)[C@@H](Cc2ccc(O)cc2)NC(=O)CNC(=O)[C@H](Cc2ccc3ccccc3c2)NC(=O)[C@H](CCCNC(=N)N)NC(=O)[C@H]1CCCNC(=O)CNC(=O)CCC(=O)NCC(=O)NCCC[C@@H]1C(=O)N[C@@H](CCCNC(=N)N)C(=O)N[C@@H](Cc2ccc3ccccc3c2)C(=O)NCC(=O)N[C@H](Cc2ccc(O)cc2)C(=O)N1C", "READOUT": "IC50", "READING UNIT": "nM", "NUMERIC RESULT": 6}
{"MOLECULE": "CN1C(=O)[C@@H](Cc2ccc(O)cc2)NC(=O)CNC(=O)[C@H](Cc2ccc3ccccc3c2)NC(=O)[C@H](CCCNC(=N)N)NC(=O)[C@H]1CCCN", "READOUT": "IC50", "READING UNIT": "nM", "NUMERIC RESULT": 6}
{"MOLECULE": "CN1C(=O)[C@@H](Cc2ccc(O)cc2)NC(=O)CNC(=O)[C@H](Cc2ccc3ccccc3c2)NC(=O)[C@H](CCCNC(=N)N)NC(=O)[C@H]1CCCNC(=O)CCC(=O)NCCC[C@@H]1C(=O)N[C@@H](CCCNC(=N)N)C(=O)N[C@@H](Cc2ccc3ccccc3c2)C(=O)NCC(=O)N[C@H](Cc2ccc(O)cc2)C(=O)N1C (I: cyclo([2Nal]G[dY][dNMeOrn]R) / II: cyclo([2Nal]G[dY][dNMeOrn]R); linker I:4-II:4 via Suc)", "READOUT": "IC50", "READING UNIT": "nM", "NUMERIC RESULT": 12}
{"MOLECULE": "CN1C(=O)[C@@H](Cc2ccc(O)cc2)NC(=O)CNC(=O)[C@H](Cc2ccc3ccccc3c2)NC(=O)[C@H](CCCNC(=N)N)NC(=O)[C@H]1CCCNC(=O)CC(CC(=O)NCCC[C@@H]1C(=O)N[C@@H](CCCNC(=N)N)C(=O)N[C@@H](Cc2ccc3ccccc3c2)C(=O)NCC(=O)N[C@H](Cc2ccc(O)cc2)C(=O)N1C)NC(=O)CCCCCNC(=O)CN1CCN(CC(=O)O)CCN(CC(=O)O)CCN(CC(=O)O)CC1 (stereo partly specified)", "READOUT": "IC50", "READING UNIT": "nM", "NUMERIC RESULT": 31}
{"MOLECULE": "CN1C(=O)[C@@H](Cc2ccc(O)cc2)NC(=O)CNC(=O)[C@H](Cc2ccc3ccccc3c2)NC(=O)[C@H](CCCNC(=N)N)NC(=O)[C@H]1CCCNC(=O)CNC(=O)CCCC(=O)NCC(=O)NCCC[C@@H]1C(=O)N[C@@H](CCCNC(=N)N)C(=O)N[C@@H](Cc2ccc3ccccc3c2)C(=O)NCC(=O)N[C@H](Cc2ccc(O)cc2)C(=O)N1C", "READOUT": "IC50", "READING UNIT": "nM", "NUMERIC RESULT": 14}

Next molecule, please.
Return reported IC50. Input molecule: `CN1C(=O)[C@@H](Cc2ccc(O)cc2)NC(=O)CNC(=O)[C@H](Cc2ccc3ccccc3c2)NC(=O)[C@H](CCCN=C(N)N)NC(=O)[C@H]1CCCNC(=O)CCCCCCCCCCCC(=O)NCCC[C@@H]1C(=O)N[C@@H](CCCNC(N)=O)C(=O)N[C@@H](Cc2ccc3ccccc3c2)C(=O)NCC(=O)N[C@H](Cc2ccc(O)cc2)C(=O)N1C` 4
